Numbers sourced from PubChem BioAssay AID1918958.

Test system: NCI-H196 complex spheroid viability
Measurement protocol: Anticancer human tumor NCI-H196 cell line growth inhibition [LSD1];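 note: spheroids exposed to agents for 7 days before readout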
Test parameters: second compound 1 µM; first compound 0.316 µM; stronger effect = lower value
Response field label: string, one of satisfied (viability, T/C strictly below 90%) or not satisfied.

CC(C)c1c(-c2ccccc2)nc2c(C#N)c[nH]n2c1=O + NC1CCC(NC2CC2c2ccccc2)CC1: not satisfied

Prompt line: Quick check: viability, T/C of Nc1ncn(C2CC(O)C(CO)O2)c(=O)n1 (configuration not stated) + NC1CC1c1ccc(-c2cccc(O)c2)cc1 under 90%?
Response line: not satisfied

Prompt line: Same thing, different compound: O=C(C=Cn1cnc(-c2cc(C(F)(F)F)cc(C(F)(F)F)c2)n1)NNc1cnccn1 + NC1CC1c1ccc(-c2cccc(O)c2)cc1
Response line: satisfied

Prompt line: Same thing, different compound: CC1COCCN1c1cc(C2(S(C)(=N)=O)CC2)nc(-c2ccnc3[nH]ccc23)n1 (configuration not stated) + NC1CCC(NC2CC2c2ccccc2)CC1
Response line: not satisfied

Prompt line: Same thing, different compound: COc1cc(Nc2ncc3c(n2)-c2ccc(Cl)cc2C(c2c(F)cccc2OC)=NC3)ccc1C(=O)O + NC1CCC(NC2CC2c2ccccc2)CC1
Response line: not satisfied
